Origin of values: patent US12668586B2

- systemName: AhR (Homo sapiens)
- Sequence (P35869 11-848): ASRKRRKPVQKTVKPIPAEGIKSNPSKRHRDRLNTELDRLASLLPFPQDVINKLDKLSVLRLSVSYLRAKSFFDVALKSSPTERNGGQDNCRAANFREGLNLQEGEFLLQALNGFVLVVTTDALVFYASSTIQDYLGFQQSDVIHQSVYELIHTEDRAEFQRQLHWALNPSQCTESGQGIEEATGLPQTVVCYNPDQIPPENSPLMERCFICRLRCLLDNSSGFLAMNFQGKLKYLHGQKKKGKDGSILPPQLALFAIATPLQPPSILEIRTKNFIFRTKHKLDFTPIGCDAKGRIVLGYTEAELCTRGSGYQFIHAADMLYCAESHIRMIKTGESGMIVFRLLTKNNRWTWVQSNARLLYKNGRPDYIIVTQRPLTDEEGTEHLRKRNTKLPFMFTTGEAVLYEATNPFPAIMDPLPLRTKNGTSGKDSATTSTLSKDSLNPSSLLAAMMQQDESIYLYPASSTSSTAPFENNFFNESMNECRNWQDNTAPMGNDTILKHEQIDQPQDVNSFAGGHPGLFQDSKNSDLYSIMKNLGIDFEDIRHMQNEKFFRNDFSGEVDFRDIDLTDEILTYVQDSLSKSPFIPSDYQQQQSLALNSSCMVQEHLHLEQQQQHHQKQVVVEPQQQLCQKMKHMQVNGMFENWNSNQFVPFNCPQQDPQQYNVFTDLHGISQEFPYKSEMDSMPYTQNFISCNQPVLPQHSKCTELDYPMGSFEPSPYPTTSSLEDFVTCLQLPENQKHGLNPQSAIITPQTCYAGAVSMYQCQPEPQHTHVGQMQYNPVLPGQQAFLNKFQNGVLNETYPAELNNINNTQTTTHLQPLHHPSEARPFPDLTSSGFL
- experimentalDetails: AhR inhibitory activity experiment, in vitro assay 1: HepG2-Lucia AhR cells, Lucia luciferase reporter (QUANTI-Luc)
- conditionLabel: 24 hours incubation at 37° C., Lucia luciferase in supernatant, read-out: AhR inhibitory activity C50
- From the text: Test Example: AhR Inhibitory Activity Experiment When QUANTI-Luc™ (InvivoGen Company) testing reagents are used, AhR gene signaling pathways can be studied by monitoring the activity of Lucia luciferase in the cell culture supernatant. In Vitro Assay 1: Assay on Inhibitory Activity in Human Cell Lines Adherent cell layers of HepG2-Lucia™ AhR cells in a logarithmic growth phase were washed with PBS, and then the cells were isolated with trypsin. […]
measurementType: IC50

[[record]]
molecule = "Cn1cc(-c2nc(C(=O)N[C@H]3c4ccccc4C[C@H]3O)cc(-c3ccc(Cl)cc3)n2)cn1 [Compound 3]"
measurementtype = "IC50"
readoutvalue = "50 to 200 nM"

[[record]]
molecule = "O=C(N[C@H]1CCc2ncccc21)c1cc(-c2ccc(OC(F)(F)F)cc2)nc(-c2cccnc2)n1 [Compound 27]"
measurementtype = "IC50"
readoutvalue = "< 50 nM"

[[record]]
molecule = "C[C@H](NC(=O)c1cc(-c2ccc(Cl)cc2)nc(-c2cnn(C)c2)n1)c1ccn2ncnc2c1 [Compound 17]"
measurementtype = "IC50"
readoutvalue = "< 50 nM"

[[record]]
molecule = "Cn1cc(-c2nc(C(=O)NC3(c4ccc(F)c(F)c4)CC3)cc(-c3ccc(Cl)cc3)n2)cn1 [Compound 7]"
measurementtype = "IC50"
readoutvalue = "< 50 nM"

[[record]]
molecule = "C[C@H](NC(=O)c1cc(-c2ccc(Cl)cc2)nc(-c2cnn(C)c2)n1)c1ccnc(Cl)c1 [Compound 9]"
measurementtype = "IC50"
readoutvalue = "< 50 nM"

[[record]]
molecule = "Cn1cc(-c2nc(C(=O)N[C@H]3CCc4ncccc43)cc(-c3ccc(OC(F)(F)F)cc3)n2)cn1 [Compound 61]"
measurementtype = "IC50"
readoutvalue = "> 1000 nM"

[[record]]
molecule = "C[C@H](NC(=O)c1cc(-c2ccc(Cl)cc2)nc(-c2cnn(C)c2)n1)c1ccnc(C#N)c1 [Compound 12]"
measurementtype = "IC50"
readoutvalue = "< 50 nM"

